# system under test: CYP1A1 (Mus musculus)
# Sequence (P00184 whole entry): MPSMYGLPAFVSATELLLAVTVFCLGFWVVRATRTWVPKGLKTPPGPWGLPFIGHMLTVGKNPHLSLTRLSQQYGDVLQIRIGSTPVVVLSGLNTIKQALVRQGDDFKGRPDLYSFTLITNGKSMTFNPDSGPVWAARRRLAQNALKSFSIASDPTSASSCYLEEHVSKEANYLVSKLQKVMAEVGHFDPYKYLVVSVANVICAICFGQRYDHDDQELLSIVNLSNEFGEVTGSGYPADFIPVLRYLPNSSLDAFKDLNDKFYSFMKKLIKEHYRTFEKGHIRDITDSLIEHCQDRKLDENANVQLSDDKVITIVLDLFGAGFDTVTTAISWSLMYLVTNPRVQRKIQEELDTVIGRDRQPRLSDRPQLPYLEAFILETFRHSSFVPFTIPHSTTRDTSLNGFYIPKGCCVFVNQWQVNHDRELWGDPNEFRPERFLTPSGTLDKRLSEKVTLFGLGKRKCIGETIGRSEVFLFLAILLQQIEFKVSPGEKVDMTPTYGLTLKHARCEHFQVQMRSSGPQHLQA
# test summary: Induction of CYP1A1 activity in mouse Hepa-1c1c7 cells assessed as induction ratio at 50 nM after 48 hrs by EROD assay relative to control
# Assay type: ADME, cell-based
measured property: fold induction at 48 h, 0.05 µM
One number for each entry.

input: Need fold induction at 48 h, 0.05 µM of `O=C1Nc2ccccc2/C1=C1\C(=O)Nc2cc(Cl)ccc21` , thanks.
output: 2.09

----------
# system under test: NAD(P)H dehydrogenase [quinone] 1 (Mus musculus) (UniProt Q64669)
# Sequence (Q64669 whole entry): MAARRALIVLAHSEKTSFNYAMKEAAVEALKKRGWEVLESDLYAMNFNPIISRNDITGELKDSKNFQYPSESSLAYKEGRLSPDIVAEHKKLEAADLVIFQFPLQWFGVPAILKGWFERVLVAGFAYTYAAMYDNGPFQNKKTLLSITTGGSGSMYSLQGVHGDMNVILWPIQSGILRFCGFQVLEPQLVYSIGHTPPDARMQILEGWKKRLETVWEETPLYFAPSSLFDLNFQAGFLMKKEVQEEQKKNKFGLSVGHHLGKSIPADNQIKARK
# test summary: Induction of NQO1 activity in mouse Hepa-1c1c7 cells assessed as induction ratio at 7.5 uM after 48 hrs by MTT assay relative to control
# Type: cell-based
Give measured Ratio for each item. Keep answers brief.
One number for each entry.

O=C1Nc2ccccc2/C1=C\c1cccc(F)c1    4.19
CCc1ccc(/C=C2/C(=O)Nc3ccccc32)cc1    4.96
COc1ccc(/C=C2\Nc3ccccc3C2=O)cc1O    4.21
O=C1Nc2ccccc2/C1=C\c1cccc(Oc2ccccc2)c1    3.34

We now examine a further molecule.
input: Entry `Cc1ccc(/C=C2/C(=O)Nc3ccccc32)cc1` , system NAD(P)H dehydrogenase [quinone] 1 (Mus musculus) (UniProt Q64669): what Ratio was measured?
output: 3.05
